- System: T1, amino acid residues 26-148 of human ANGPTL4 fused in-line to mouse IgG2a (hANGPTL4-mFc) (human)
- T1 construct: contains the N-terminal coiled-coil region
- T1 chain: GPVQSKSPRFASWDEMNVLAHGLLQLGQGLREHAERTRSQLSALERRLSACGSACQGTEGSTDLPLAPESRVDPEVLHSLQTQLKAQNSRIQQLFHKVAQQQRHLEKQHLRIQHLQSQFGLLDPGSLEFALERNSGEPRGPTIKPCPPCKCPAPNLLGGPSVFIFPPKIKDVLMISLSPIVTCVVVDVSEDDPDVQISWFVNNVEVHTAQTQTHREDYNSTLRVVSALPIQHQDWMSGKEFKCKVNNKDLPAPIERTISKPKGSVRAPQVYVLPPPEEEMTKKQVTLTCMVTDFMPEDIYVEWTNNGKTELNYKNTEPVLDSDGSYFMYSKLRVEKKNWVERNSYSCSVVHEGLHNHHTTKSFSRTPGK
- Procedure summary: SPR (Biacore), 25° C., pH 7.2, antigen captured by anti-mFc
Observable: kon (M⁻¹ s⁻¹)
Reply with just the number (in M⁻¹ s⁻¹).

Data request: Fill in the blank: the reported kon of H1H268P Fab fragment (Fab, V domains shown, Fab made by papain digestion of H1H268P (IgG1); also called H1H268 Fab) VH: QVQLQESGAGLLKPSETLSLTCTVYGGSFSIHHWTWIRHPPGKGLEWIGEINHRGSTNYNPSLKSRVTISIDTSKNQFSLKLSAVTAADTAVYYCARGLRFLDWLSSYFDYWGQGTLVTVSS VL: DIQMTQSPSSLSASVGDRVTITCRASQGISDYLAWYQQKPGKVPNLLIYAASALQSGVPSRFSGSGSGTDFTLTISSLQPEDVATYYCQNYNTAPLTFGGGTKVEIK is ____.
Data returned: 300000
